# reported GI50; entries follow
Test system: MDA-N
Assay: NCI tumour cell line growth inhibition, 48 h
Active and inactive are the calls of the source. Rule as the data show it: active = GI50 up to about 1.1 µM and inactive = higher. Where a SMILES comes first, the peptide text is derived from it.

Sample answers from the record:
{"MOLECULE": "NCCSS(=O)(=O)CCN", "GI50": "> 100 µM (inactive)"}
{"MOLECULE": "CC(C)CC(NC(=O)C(Cc1ccccc1)NC(=O)C(Cc1c[nH]c2ccccc12)NC(=O)CNC(=O)C(N)Cc1ccc(O)cc1)C(=O)O (stereo unspecified) (H-YGWFL-OH; configuration not given here)", "GI50": "35.4 µM (inactive)"}
{"MOLECULE": "CC1=CC(=O)/C(=C/NC(=S)C(N)=S)C(=O)O1", "GI50": "> 100 µM (inactive)"}
{"MOLECULE": "COc1cc2c(cc1OC)C1Cc3ccccc3CN1CCC2 (stereo unspecified)", "GI50": "45 µM (inactive)"}
{"MOLECULE": "Fc1nc(-c2c3ccccc3c3sc4ccccc4n23)nc(N2CCOCCOCCOCCOCC2)n1", "GI50": "> 100 µM (inactive)"}

Query string: Give the measured GI50 of S=C(Nc1ccc2c(c1)Cc1ccccc1-2)Nc1ccc2c(c1)Cc1ccccc1-2 .
Result string: > 100 µM (inactive)

Query string: Lookup Nc1ncnc2c1ncn2[C@@H]1C[C@@H]1CO
Result string: > 100 µM (inactive)

Query string: Would you kindly repeat that for Cc1c(C(=O)Nc2ccccc2)nnn1-c1ccnc2cc(C(F)(F)F)ccc12 ?
Result string: 33.3 µM (inactive)

Query string: Entry to check: Cc1ncc(CSC(=N)N)n1Cc1ccccc1
Result string: 38.2 µM (inactive)

Query string: Cool, now CCOc1cc(NC(C)=O)ccc1C(=O)NN1C(=O)C(Oc2ccccc2)C1c1ccc(O)c(OC)c1 (stereo unspecified)
Result string: 33.6 µM (inactive)

Query string: And then CC1(C)O[C@H](C(=O)O)[C@@H](C(=O)O)O1 , what is it?
Result string: > 100 µM (inactive)

###

Tested on: EKVX
Assay: NCI tumour cell line growth inhibition, 48 h
Activity calls are given as the source filed them. No stated cut-off is given here; in the data, active = GI50 up to about 1.1 µM and inactive = higher.
# valid calls are active, inactive; nothing else

{"COMPOUND": "CCCCCCCC(=O)OCC1OC(n2cc(F)c(=O)[nH]c2=O)C(NC(=O)OCc2ccccc2)C(O)C1O (stereo not given)", "LABEL": "inactive"}
{"COMPOUND": "CN(C)CCNc1ccc2c(=O)n(CCN(C)C)c(=O)n3c4ccc([N+](=O)[O-])cc4c(=O)c1c23", "LABEL": "active"}

Query string: Test call, this compound: O=C(CSCC(=O)N/N=C\c1cccc(Br)c1)N/N=C\c1cccc(Br)c1
Result string: inactive

Query string: Note, next up: COc1cc(/C=C/C(=N\NS(=O)(=O)c2ccc(C)cc2)c2sc(NNC(C)=O)nc2C)ccc1O
Result string: inactive

Query string: Continue with CCN(CC)c1ccc2cc(-c3csc(-c4ccc(N(C)C)cc4)n3)c(=O)oc2c1
Result string: inactive

Query string: Follow-up entry: CCOC(=N)CC(=O)Nc1cccc(Cl)c1
Result string: inactive

Query string: Another compound to look at: COC1CC(C)C(OC)c2cc(O)cc(c2O)NC(=O)/C(C)=C/C=C\C(C)C(OC(N)=O)/C(C)=C\C(C)C1OC (stereo not given)
Result string: inactive

Query string: Would you mind doing COc1cc(C2C=C(c3ccccc3)Oc3cc4c(cc32)OCO4)cc(OC)c1OC (stereo not given) as well?
Result string: active

Query string: Proceed to c1ccc2c(c1)[nH]c1c2nc2ccccn21
Result string: inactive

Query string: Item: COc1cc(CCc2ccc(N)cc2)cc(OC)c1OC
Result string: inactive

###

Test system: MDA-MB-231
Assay: NCI tumour cell line growth inhibition, 48 h
Activity calls are given as the source filed them. Rule as the data show it: active = GI50 up to about 1.1 µM and inactive = higher.
Thanks in advance; please answer with one of these: Yes (active), No (inactive)

Query string: Would you mind telling me which call this test gave [N-]=[N+]=Nc1c(Cl)c(Cl)nc2ccccc12 ?
Result string: No

Query string: Now the molecule CCc1c(Cl)nc(Cl)nc1Cl
Result string: Yes

Query string: Query c1csc(-c2cscc2-c2cccs2)c1 next
Result string: No

Query string: Please answer likewise for O=C1CC(NCc2ccccc2)c2c(Cl)sc(Cl)c21 (stereo not drawn)
Result string: No

Query string: What do you have for N#Cc1c(N)c(C#N)c2c(c1-c1ccc(Cl)cc1)COc1ccccc1-2 ?
Result string: No

Query string: Next: O=C(CC(O)(C(F)(F)F)C(F)(F)Cl)CC(O)(C(F)(F)F)C(F)(F)Cl (stereo not drawn)
Result string: No

Query string: Do the same for O=C1/C(=C/c2ccc(OC(=O)c3ccc(Cl)cc3)cc2)CCC/C1=C\c1ccc(OC(=O)c2ccc(Cl)cc2)cc1 please
Result string: No

Query string: Okay, and CC(=O)Nc1c(C(=N)C#N)ncn1CCO ?
Result string: No

Query string: What do you have for COc1cccc(C2CC(C)(O)Oc3cc4c(cc32)OCO4)c1O (stereo not drawn) ?
Result string: No

Query string: Also CCN(CC)CC(=O)Nc1c(C(N)=O)nnn1Cc1cc(Cl)c(C(=O)c2ccc(Cl)cc2)c(Cl)c1 ?
Result string: No

Query string: Okay, and C(#C[C@@]12CCC[C@@H]1N(Cc1ccccc1)CO2)c1ccc2c(c1)OCO2 ?
Result string: No

Query string: Queued: CN1CCN(C(=S)N(C(=O)c2ccc(Cl)cc2)C2CCCCC2)CC1
Result string: No

Query string: // query: CC(=O)OCC1OC(n2c(C)c(C(C)=O)c(-c3ccco3)c(C#N)c2=S)C(OC(C)=O)C(OC(C)=O)C1OC(C)=O (stereo not drawn)
Result string: No

Query string: Okay, and O=C(CSCC(=O)N/N=C\c1cccc(Br)c1)N/N=C\c1cccc(Br)c1 ?
Result string: No

Query string: Same read-out for COc1cc2c(cc1OC)C1Cc3ccccc3CN1CCC2 (stereo not drawn) ?
Result string: No

Query string: Now the molecule COC(=O)c1cc(/C=C\c2cc(OC)ccc2OC)ccc1OC
Result string: No

Query string: Here is the next molecule: S=C(Nc1ccc2c(c1)Cc1ccccc1-2)Nc1ccc2c(c1)Cc1ccccc1-2
Result string: No

Query string: For O=C(Cn1c(C(=O)c2ccccc2)nc2ccccc21)c1ccccc1 then?
Result string: No

Query string: Then CC(C)(C)NCc1cc(C(C)(C)C)cc(-c2ccc(Cl)cc2)c1O ?
Result string: No

Query string: Also, Cc1ccc(S(=O)(=O)CNC(=O)C(O)(O)C(F)(F)F)cc1 please.
Result string: No

Query string: Same for O=C(O)c1cnccc1-c1cc(=O)[nH]n1-c1ccccc1
Result string: No

Query string: Now give it for COc1ccc(-n2cnc3c(NC(Cc4ccccc4)C(=O)O)ncnc32)cc1 (stereo not drawn) too.
Result string: No

Query string: # iterate: NC(CSC(=O)c1ccccc1)C(=O)O (stereo not drawn)
Result string: No

Query string: Lookup CC(=O)C(=NNc1ccc(-n2c(C)nc3ccc(Br)cc3c2=O)cc1)C(C)=O
Result string: No

Query string: // next record Cc1c(C(=O)Nc2ccccc2)nnn1-c1ccnc2cc(C(F)(F)F)ccc12
Result string: No

Query string: Follow-up entry: C1CCN2CC3CCCN4CCCC(C2C1)C34 (stereo not drawn)
Result string: No

###

Tested on: SF-539
Assay: NCI tumour cell line growth inhibition, 48 h
The source made the active and inactive calls. No stated cut-off is given here; in the data, active = GI50 up to about 1.1 µM and inactive = higher.
Classes to choose from: T for active, F for inactive

{"MOLECULE": "COC(=O)c1cc(/C=C\\c2cc(OC)ccc2OC)ccc1OC", "ASSAY_SYSTEM": "SF-539", "LABEL": "F"}
{"MOLECULE": "NC(C(=O)O)C(N)C(=O)O (stereo not given)", "ASSAY_SYSTEM": "SF-539", "LABEL": "F"}
{"MOLECULE": "Cc1ncc(CSC(=N)N)n1Cc1ccccc1", "ASSAY_SYSTEM": "SF-539", "LABEL": "F"}

Query string: I would be grateful if you could indicate the recorded call for CCOC(=O)c1ccc(-c2cc(C)[nH]n2)[nH]1 .
Result string: F

Query string: Param item: CCOC(=O)c1c(-c2ccc(Cl)cc2)c(C#N)c(=S)n(C2OC(COC(C)=O)C(OC(C)=O)C(OC(C)=O)C2OC(C)=O)c1C (stereo not given)
Result string: F

Query string: Now the same for COC1(C)Cc2c(c(C)c(O)c3c2C(=O)C=C(Cl)C3=O)O1 (stereo not given)
Result string: F

Query string: Could you do the same for C[N+](C)(C)CC(=O)N/N=C(\C(=O)Nc1ccc(Cl)cc1)C1C(=O)N(c2ccccc2)N=C1N (stereo not given) , please?
Result string: F

Query string: // same read-out, input: CC(=O)C(=NNc1ccc(-n2c(C)nc3ccc(Br)cc3c2=O)cc1)C(C)=O
Result string: F
